- target or test system: KAT2A (Homo sapiens)
- Sequence (Q92830 whole entry): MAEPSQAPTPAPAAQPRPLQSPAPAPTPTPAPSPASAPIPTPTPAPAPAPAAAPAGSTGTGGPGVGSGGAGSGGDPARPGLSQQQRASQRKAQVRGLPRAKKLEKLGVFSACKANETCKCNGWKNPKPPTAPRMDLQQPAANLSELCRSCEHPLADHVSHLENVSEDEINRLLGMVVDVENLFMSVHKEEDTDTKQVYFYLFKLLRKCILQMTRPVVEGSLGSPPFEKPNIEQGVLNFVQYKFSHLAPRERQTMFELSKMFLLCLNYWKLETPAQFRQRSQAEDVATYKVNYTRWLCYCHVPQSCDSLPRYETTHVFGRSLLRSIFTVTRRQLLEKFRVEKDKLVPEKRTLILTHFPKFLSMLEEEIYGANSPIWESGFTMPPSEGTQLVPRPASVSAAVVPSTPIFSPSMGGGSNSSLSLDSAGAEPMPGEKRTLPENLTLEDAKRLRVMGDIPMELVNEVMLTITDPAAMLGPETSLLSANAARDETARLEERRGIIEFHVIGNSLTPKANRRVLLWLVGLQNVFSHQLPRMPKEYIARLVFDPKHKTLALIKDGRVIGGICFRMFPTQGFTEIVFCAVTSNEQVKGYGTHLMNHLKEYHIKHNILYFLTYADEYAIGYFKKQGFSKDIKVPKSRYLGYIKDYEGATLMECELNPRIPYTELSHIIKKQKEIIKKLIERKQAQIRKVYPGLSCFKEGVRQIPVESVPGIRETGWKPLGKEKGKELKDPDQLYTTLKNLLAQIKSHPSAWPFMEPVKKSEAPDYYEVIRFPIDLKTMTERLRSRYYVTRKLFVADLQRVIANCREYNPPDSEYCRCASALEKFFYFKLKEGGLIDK
- test description: KAT2A degradation, Western Blot (Jess), NCI-H1048 cells
- Assay type: cell-based
- Design: degrader, Western blot (Jess)
- experimental context: NCI-H1048 cells, KAT2A, 24 h, Western Blot, vs DMSO; read-out: KAT2A NCI-H1048 DC50
observation type: DC50

Answered examples (2):
{"molecule": "Cc1c(C2CCC(=O)NC2=O)ccc(N2CCC3(CCN(C(=O)c4ccc([C@H]5C[C@@H](Nc6cnn(C)c(=O)c6Cl)CN(C)C5)cc4)CC3)CC2)c1F (stereo partly drawn)", "DC50": "< 1 nM"}
{"molecule": "CN1C[C@H](Nc2cnn(C)c(=O)c2Br)C[C@H](c2ccc(N3CCC4(CC3)CCN(c3cccc(CN5CCC(=O)NC5=O)c3)CC4)cc2)C1", "DC50": "1 to 30 nM"}

Consider the molecule Cc1c(N[C@@H]2C[C@H](c3ccc(CN4CCN(c5cc6c(cc5F)C(=O)N(C5CCC(=O)NC5=O)C6=O)CC4)cc3)CN(C)C2)cnn(C)c1=O (stereo partly drawn) and give its measured DC50.
1 to 30 nM
